Biological target: B.1.1.7 Spike (SARS-CoV-2 spike protein, UK variant B.1.1.7) (SARS-CoV-2)
Quick reference for Response among some binders
Please state the value as a number alone, without comment.

Guide cases for Response, answers given:
Ab 31 scFv-Fc (scFv, V domains shown) VH: QVQLVQSGAEVKKPGSSVKVSCKASGGTFSSYTISWVRQAPGQGLEWMGGIIPILGTPNYAQKFQDRVAITADKSTSTAYMELSSLRSEDTAVYYCAVGSGWYSGFDYWGQGTLVTVSS VL: NFMLTQPHSVSESPGKTVTISCTGSSGSIASNYVQWYQQRPGSAPTTVIYEDSQRPSGVPDRFSGSIDSSSNSASLTISGLKTEDEADYYCQSFHNSNPVIFGGGTKLTVL    0.135
Ab 38 scFv-Fc (scFv, V domains shown) VH: QVTLKESGPTLVKPTQTLTLTCTFSGFSLTTSGVSVGWIRQPPGKALEWLALIHWDDDKRYSPSLRSRLTITRDTSKNQVVLTVTDMDPADTGTYYCASFIMTVYAEYFEDWGQGTLVTVSS VL: EIVLTQSPATLSVSPGERATLSCRASQSVSSNLAWYQQKPGQAPRLLMYDVSTRATGIPARFSGSGSGTEFSLTISSLQSEDFAVYYCQQRGAWPLTFGGGTKVEIK    0.267
Ab 30 scFv-Fc (scFv, V domains shown) VH: QVQLVQSGGGVVQPGKSLRLSCTASGFTFSDFPIHWVRQAPGKGLEWVGVISYDGNIKYYGDSVKGRFTISRDNAKNSLYLQMNSLRVEDTAVYYCARGGSSFDIWGQGTTVTVSS VL: SYELTQPPSVSEAPRQRVTISCSGSTSNIGNNAVSWYQHLPGKAPKLLIYYNERLPSGVSDRFSGSKSGTSASLAISGLRSEDEADYYCAAWDDSLSGHVVFGGGTKLTVL    0.139

Turning now to a further binder:
Request: Answer with reported Response of Ab 29 scFv-Fc (scFv, V domains shown) VH: QVQLQQSGPGLVKPSQTLSLTCAISGDSVSSYSDAWNWIRQSPSRGLEWLGRTYYRSKWYNDYAVSVKSRITINPDTSKNQFSLQLSSVTPEDTAVYYCAREIVATTPFRNYYYGMDVWGQGTTVTVSS VL: NFMLTQPHSVSESPGNTVTISCTRTSGSIASNYVQWYQQRPGSSPTTVIFQDKLRPSGVPDRFSGSIDSSSNSASLTISGLKTEDEADYYCQSYDSSSLWVFGGGTKLTVL
Result: 0.118

Every entry's value here was drawn from patent US20240409617A1.
